Parameter relative viability: see the listing below.
- Tested on: HCC-827
- measurement_protocol: relative viability (nuclei count vs DMSO), 5 days (fraction); higher = more cells survive
- test_conditions: first compound 0.4 µM

Look over these answered cases.
compound: Clc1ccc(Nc2nnc(Cc3ccncc3)c3ccccc23)cc1 [Vatalanib] + CS(=O)(=O)N1CCN(Cc2cc3nc(-c4cccc5[nH]ncc45)nc(N4CCOCC4)c3s2)CC1 [Pictilisib] (partner 1 µM)
assayed_system: HCC-827
relative viability: 0.925
--
compound: COc1cc(N2CCC(C(N)=O)CC2)ccc1Nc1nc(N)c(Cl)c(Nc2ccccc2S(=O)(=O)C(C)C)n1 [HG-5-88-01] + CS(=O)(=O)CCNCc1ccc(-c2ccc3ncnc(Nc4ccc(OCc5cccc(F)c5)c(Cl)c4)c3c2)o1 [Lapatinib] (partner 2 µM)
assayed_system: HCC-827
relative viability: 0.17

# relative viability of COc1cc(N2CCC(C(N)=O)CC2)ccc1Nc1nc(N)c(Cl)c(Nc2ccccc2S(=O)(=O)C(C)C)n1 [HG-5-88-01] + Cc1nc(NC(=O)N2CCC[C@H]2C(N)=O)sc1-c1ccnc(C(C)(C)C(F)(F)F)c1 [Alpelisib] (partner 2 µM) = 1.05

----------
- System: NCI-H1650
- measurement_protocol: relative viability (nuclei count vs DMSO), 5 days (fraction); higher = more cells survive
- test_conditions: first compound 0.8 µM
Each record is given label 1 if its reported relative viability is strictly below 0.4. Records at or above 0.4 are given label 0.

*Q* Item CCCCCCCCCCCC1=C(O)C(=O)C=C(O)C1=O [Embelin] + Nc1nc2[nH]cc(CCc3ccc(C(=O)N[C@@H](CCC(=O)O)C(=O)O)cc3)c2c(=O)[nH]1 [Pemetrexed] (partner 0.2 µM) : relative viability beneath 0.4, strictly?
*A* label 1

----------
Listing: relative viability of selected compounds
- Tested on: NCI-H1944
- measurement_protocol: relative viability (nuclei count vs DMSO), 5 days (fraction); higher = more cells survive
- test_conditions: first compound 0.8 µM
API note: the answer field is a bare number with no unit suffix.

Example compounds with recorded relative viability:
compound: CCCCCCCCCCCC1=C(O)C(=O)C=C(O)C1=O [Embelin] + CC(=O)Nc1cccc(-n2c(=O)n(C3CC3)c(=O)c3c(Nc4ccc(I)cc4F)n(C)c(=O)c(C)c32)c1 [Trametinib] (partner 0.02 µM)
relative viability: 0.436

compound: CCCCCCCCCCCC1=C(O)C(=O)C=C(O)C1=O [Embelin] + CC(=O)c1c(C)c2cnc(Nc3ccc(N4CCNCC4)cn3)nc2n(C2CCCC2)c1=O [Palbociclib] (partner 0.5 µM)
relative viability: 0.405

Here is the next item to consider.
The reported relative viability value, NCI-H1944, for CCCCCCCCCCCC1=C(O)C(=O)C=C(O)C1=O [Embelin] + NC(=O)Nc1cc(-c2cccc(F)c2)sc1C(=O)N[C@H]1CCCNC1 [AZD7762] (partner 0.2 µM) reads 0.566

----------
- System: NCI-H1792
- measurement_protocol: relative viability (nuclei count vs DMSO), 5 days (fraction); higher = more cells survive
- test_conditions: first compound 0.8 µM
Recorded relative viability, one value per entry.

molecule: CCCCCCCCCCCC1=C(O)C(=O)C=C(O)C1=O [Embelin] + O=C(c1cc(Cc2n[nH]c(=O)c3ccccc23)ccc1F)N1CCN(C(=O)C2CC2)CC1 [Olaparib] (partner 8 µM)
assayed_system: NCI-H1792
relative viability: 0.42
//
molecule: CCCCCCCCCCCC1=C(O)C(=O)C=C(O)C1=O [Embelin] + CC(=O)c1c(C)c2cnc(Nc3ccc(N4CCNCC4)cn3)nc2n(C2CCCC2)c1=O [Palbociclib] (partner 0.5 µM)
assayed_system: NCI-H1792
relative viability: 0.719
//
molecule: CCCCCCCCCCCC1=C(O)C(=O)C=C(O)C1=O [Embelin] + C[C@]1(O)C[C@@H](c2nc(-c3ccc4ccc(-c5ccccc5)nc4c3)c3c(N)nccn32)C1 [Linsitinib] (partner 1 µM)
assayed_system: NCI-H1792
relative viability: 0.607
//
molecule: CCCCCCCCCCCC1=C(O)C(=O)C=C(O)C1=O [Embelin] + CC1(C)CCC(c2ccc(Cl)cc2)=C(CN2CCN(c3ccc(C(=O)NS(=O)(=O)c4ccc(N[C@H](CCN5CCOCC5)CSc5ccccc5)c(S(=O)(=O)C(F)(F)F)c4)cc3)CC2)C1 [Navitoclax] (partner 0.5 µM)
assayed_system: NCI-H1792
relative viability: 0.649
//
molecule: CCCCCCCCCCCC1=C(O)C(=O)C=C(O)C1=O [Embelin] + CC(=O)Nc1cccc(-n2c(=O)n(C3CC3)c(=O)c3c(Nc4ccc(I)cc4F)n(C)c(=O)c(C)c32)c1 [Trametinib] (partner 0.02 µM)
assayed_system: NCI-H1792
relative viability: 0.539
//
molecule: CCCCCCCCCCCC1=C(O)C(=O)C=C(O)C1=O [Embelin] + CS(=O)(=O)CCNCc1ccc(-c2ccc3ncnc(Nc4ccc(OCc5cccc(F)c5)c(Cl)c4)c3c2)o1 [Lapatinib] (partner 2 µM)
assayed_system: NCI-H1792
relative viability: 0.877
//
molecule: CCCCCCCCCCCC1=C(O)C(=O)C=C(O)C1=O [Embelin] + CC(C)C[C@H](NC(=O)[C@H](Cc1ccccc1)NC(=O)c1cnccn1)B(O)O [Bortezomib] (partner 0.002 µM)
assayed_system: NCI-H1792
relative viability: 1

According to the records, this molecule CCCCCCCCCCCC1=C(O)C(=O)C=C(O)C1=O [Embelin] + N=C(N)NC(=N)NCCc1ccccc1 [Phenformin] (partner 250 µM) displays relative viability of 0.424
